Target: PcrV of P. aeruginosa strain ATCC 700888 (Pseudomonas aeruginosa strain ATCC …)
Assay: cell-based or functional assay
readout type: A549 Cytotoxicity Assay (IC50) (nM)
Write down the numeric answer in nM and omit the unit.

1) H1H29336P (antibody, V domains shown) VH: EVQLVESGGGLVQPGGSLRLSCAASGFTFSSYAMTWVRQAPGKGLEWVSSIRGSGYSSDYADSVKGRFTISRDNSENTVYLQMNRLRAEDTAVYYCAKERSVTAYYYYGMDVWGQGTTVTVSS VL: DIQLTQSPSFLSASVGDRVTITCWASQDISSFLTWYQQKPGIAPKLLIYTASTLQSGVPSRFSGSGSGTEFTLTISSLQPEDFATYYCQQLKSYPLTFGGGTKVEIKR; 6.37

State its A549 Cytotoxicity Assay (IC50) for this binder: H1H29332P (antibody, V domains shown) VH: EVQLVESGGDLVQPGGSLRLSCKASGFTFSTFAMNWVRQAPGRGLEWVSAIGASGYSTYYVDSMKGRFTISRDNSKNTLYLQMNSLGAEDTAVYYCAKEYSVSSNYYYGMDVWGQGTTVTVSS VL: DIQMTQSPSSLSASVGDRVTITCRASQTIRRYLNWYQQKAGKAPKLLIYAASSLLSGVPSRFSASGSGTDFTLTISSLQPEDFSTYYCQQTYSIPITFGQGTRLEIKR
32.9
